assayed system: T1, recombinant human CD40-Fc (human, UniProt P25942 21-193)
T1 construct: also called rh-CD40-Fc; CD40-hFc
T1 sequence (P25942 21-193): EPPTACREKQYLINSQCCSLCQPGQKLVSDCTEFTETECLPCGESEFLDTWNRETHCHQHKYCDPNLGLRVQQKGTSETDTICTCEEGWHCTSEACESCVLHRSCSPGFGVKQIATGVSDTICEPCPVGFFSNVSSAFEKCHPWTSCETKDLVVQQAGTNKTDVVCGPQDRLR
experiment notes: ELISA, CD40-Fc coated, VHH at 0.064 nM
measured attribute: OD450

Query :: Can you look up the measured OD450 of pgDD40-SZ-1 (VHH, not shown: small tags and cut ends) VHH: QVQLVESGGALAQPGGSLRLSCEASTNVRSVNAMAWYRQGPGKPRELVANITSDDATYYADSVKGRFTLSREGARNTVYLQMNSLKPEDTAVYQCNVHYTSWGGIRRDYWGRGTQVTVSS for me?
Result :: 0.074

Query :: Can you look up the measured OD450 of pgDD40-SZ-12 (VHH, not shown: small tags and cut ends) VHH: EVQLVESGGGLVQPGGSLKLSCAASGFAFSRYTMSWVRQAPGKGLEWVSGIDSGGGRTSYINSVKGRFTISRDNAKNTLYLQMNSLKPEDTAVYHCAQGGDSGSYYRTSWGQGTQVTVSS for me?
Result :: 0.065

Query :: Can you look up the measured OD450 of pgDD40-HZ-24 (VHH, not shown: small tags and cut ends, also called pgDD40-HG-24) VHH: EVQLVESGGGSVQAGGSLRLSCAASLSTFSNYRMGWFRRAPGKERELVARIEPHGVVDYGDSVKGRFTISRDNAKNTVTVYLHMNSLKPEDTAVYYCNALRLISGRYDPLFSSWGQGTQVTVSS for me?
Result :: 0.084

Query :: Can you look up the measured OD450 of pgDD40-SZ-5 (VHH, not shown: small tags and cut ends) VHH: QVQLVESGGALAQPGGSLRLSCEASENVRSVNAMAWYRQGPGKPRELVANITSGDATYYADSVKGRFTLSREGARNTVYLQMNSLKPEDTAVYQCNVHYTSWGGIRRDYWGRGTQVTVSS for me?
Result :: 0.085
